# system_tested: mGluR5 (Homo sapiens, UniProt P41594)
# Construct: expression induced with doxycycline
# Sequence (P41594 21-1212): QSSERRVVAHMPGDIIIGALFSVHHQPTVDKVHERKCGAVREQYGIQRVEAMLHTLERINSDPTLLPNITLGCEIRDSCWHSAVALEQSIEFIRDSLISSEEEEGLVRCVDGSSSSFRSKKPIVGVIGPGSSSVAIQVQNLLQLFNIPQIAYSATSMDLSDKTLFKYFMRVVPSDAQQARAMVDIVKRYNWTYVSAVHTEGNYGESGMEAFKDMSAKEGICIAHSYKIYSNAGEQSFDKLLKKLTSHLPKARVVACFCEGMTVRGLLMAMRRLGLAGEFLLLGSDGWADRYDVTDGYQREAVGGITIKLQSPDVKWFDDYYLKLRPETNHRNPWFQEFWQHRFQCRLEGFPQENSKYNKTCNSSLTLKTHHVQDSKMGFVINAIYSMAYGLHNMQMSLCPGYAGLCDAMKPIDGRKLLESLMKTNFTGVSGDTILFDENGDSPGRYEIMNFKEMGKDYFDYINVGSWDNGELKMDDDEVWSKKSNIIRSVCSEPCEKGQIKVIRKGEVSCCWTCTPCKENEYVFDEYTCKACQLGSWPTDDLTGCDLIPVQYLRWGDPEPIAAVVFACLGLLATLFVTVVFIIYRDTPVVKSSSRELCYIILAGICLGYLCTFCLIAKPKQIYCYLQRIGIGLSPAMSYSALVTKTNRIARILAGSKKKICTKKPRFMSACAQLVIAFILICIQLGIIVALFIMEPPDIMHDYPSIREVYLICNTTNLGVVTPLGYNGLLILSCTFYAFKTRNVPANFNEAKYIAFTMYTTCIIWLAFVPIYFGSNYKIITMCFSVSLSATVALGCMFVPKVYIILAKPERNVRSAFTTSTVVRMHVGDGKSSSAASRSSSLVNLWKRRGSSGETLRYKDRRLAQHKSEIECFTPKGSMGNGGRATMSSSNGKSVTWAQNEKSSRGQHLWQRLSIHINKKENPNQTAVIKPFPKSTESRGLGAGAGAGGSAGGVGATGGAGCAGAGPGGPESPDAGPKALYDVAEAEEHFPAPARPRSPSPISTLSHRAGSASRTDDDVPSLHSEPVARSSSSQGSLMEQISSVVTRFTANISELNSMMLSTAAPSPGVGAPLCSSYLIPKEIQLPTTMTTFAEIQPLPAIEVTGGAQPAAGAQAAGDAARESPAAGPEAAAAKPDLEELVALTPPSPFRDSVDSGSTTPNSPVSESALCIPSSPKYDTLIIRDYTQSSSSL
# test_method_notes: aequorin calcium assay, negative allosteric modulation of mGluR5
# Format: cell-based
# condition: aequorin assay, agonist at EC80; 10000 = no activity observed at 10,000 nM; read-out: mGluR5 EC50
# Protocol: The ability of test compound to ameliorate the efflux of calcium cations (Ca^++) in the presence of agonist (glutamate or quisqualate) is measured by detection of light emitted by the luminescent protein aequorin triggered by binding of Ca^++. Aequorin is a photoprotein isolated from luminescent jellyfish (like various Aequorea species e.g. Aequorea victoria). […] As the excited coelenteramide relaxes to the ground state, blue light (wavelength=469 nm) is emitted and can be measured by a luminometer. […]
endpoint_label: EC50 (nM)

1. C=Cc1cccc(NC(=O)c2cc(Cl)ccc2O)c1; 48
2. Cc1cccc(NC(=O)c2cc(Cl)ccc2O)c1; 84
3. O=C(Nc1ccccc1)c1cc(Cl)ccc1O; 731
4. O=C(Nc1cccc(F)c1)c1cc(Cl)ccc1O; 138
5. O=C(Nc1ccc(Cl)c(Cl)c1)c1cc(Cl)ccc1O; 90
6. O=C(Nc1ccc([N+](=O)[O-])cc1Cl)c1ccccc1O; 168
7. O=C(Nc1cccc(Cl)c1)c1cc(Cl)ccc1O; 126
8. O=C(Nc1ccc([N+](=O)[O-])cc1Cl)c1cc(Cl)ccc1O; 62
9. O=C(Nc1ccc([N+](=O)[O-])cc1Cl)c1cc(Cl)cc(Cl)c1O; 669
